System: L1210
ASSAY_DETAILS: Percent viability against L1210 leukemic cells at 0 uM
Format: functional, Mus musculus
MEASURED_METRIC: Viability
Be sure to follow the number with its unit.

Recorded result, O=C(NCCCCN(CCCCNC(=O)C1CSC(c2ccccc2O)=N1)Cc1ccccc1)C1CSC(c2ccccc2O)=N1 (centres undefined) , Viability: 87%

Recorded result, CC(=O)N(CCCCNC(=O)C1CSC(c2ccccc2O)=N1)CCCCNC(=O)C1CSC(c2ccccc2O)=N1 (centres undefined) , Viability: 99%

Recorded result, O=C(O)C1CSC(c2ccccc2O)=N1 (centres undefined) , Viability: 94%

Recorded result, COC(=O)C1CSC(c2ccccc2O)=N1 (centres undefined) , Viability: 99%
